Provenance of the data: PubChem BioAssay

Exercise: for every item that follows, state its recorded z-score.
Experiment: E. coli growth modulation, two-sided OD650, primary screen, E. coli filamentation project, strain DRC41, 24 h (AID 1093);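 note: MC1000 strain lacking acrAB efflux and sulA so SOS filamentation is blocked; test concentration not given here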
Details: OD650, 24 h, higher = more signal, called active from +8 up or from −8 down
Respond with the number and no other words.

For COC(=O)c1c2oc(c1C(=O)OC)C(=O)N(Cc1ccccc1)Cc1cn(nn1)C[C@H](Cc1ccccc1)NC(=O)N[C@H](CO)CC2 the molecule record lists z-score as 0.101

For COC(=O)c1cn(C[C@@H](Cc2ccccc2)NC(=O)N[C@H](CO)CCc2oc(C(C)=O)c(C(=O)OC)c2C(=O)OC)nn1 the molecule record lists z-score as 1.01

For CN(C)C(=O)C1N=C(c2ccc(OCCCO)cc2)N(c2ccccc2)O1 (stereo not given) the molecule record lists z-score as 1.15

For CN1C(=O)C2C=CC(C(O)C#Cc3ccccc3)N(Nc3ccccc3)C2C1=O (stereo not given) the molecule record lists z-score as -0.672

For CCCNC(=O)[C@@]1(c2ccc([N+](=O)[O-])cc2)CC(=O)N(C2CCCCC2)[C@@H]1c1ccc(CO)cc1 the molecule record lists z-score as 0.824
